Values were extracted from paper PMC12610161.

- METHOD_NOTES: in vitro
- RUN_PARAMETERS: KM, mouse, plasma
Ends that are not written are not given here.
VALUE_KIND: remaining at 2 h, 167 µM (%)
One number for each entry, in %.

> print(dat)
           record.sequence                value.kind  obs.value
1  EVSGPGLSPN [EVSGPGLSPN]  remaining at 2 h, 167 µM         99

Kindly review the next sequence as well.
Reported remaining at 2 h, 167 µM for EVSGPGYSPN [EVSGPGYSPN] : what is it?
92.4

###

- METHOD_NOTES: in vitro
Ends that are not written are not given here.
VALUE_KIND: recovery at 100 µM (%)
Give bare numbers, in %.

> print(dat)
           record.sequence          value.kind  obs.value
1  EVSGPGLSPN [EVSGPGLSPN]  recovery at 100 µM       19.5

Report recovery at 100 µM for EVSGPGYSPN [EVSGPGYSPN] please.
14

###

- METHOD_NOTES: in vitro
- RUN_PARAMETERS: KM, mouse, plasma
Ends that are not written are not given here.
VALUE_KIND: remaining at 24 h, 167 µM (%)
Answers are plain numbers, in %.

> print(dat)
           record.sequence  units  obs.value
1  EVSGPGYSPN [EVSGPGYSPN]      %       24.3

Then this sequence:
Could you tell me which remaining at 24 h, 167 µM is on file for EVSGPGLSPN [EVSGPGLSPN] ?
95.6

###

I'd be grateful if you could share measured Papp A→B at 4 h, 100 µM for these entries.
- METHOD_NOTES: Transwell in vitro BBB model, apparent permeability
- Type: in vitro ADME
- RUN_PARAMETERS: mouse, 100 µM in upper chamber, bEnd.3 monolayer, RP-HPLC of lower chamber
Ends that are not written are not given here.
Give bare numbers, in ×10⁻⁶ cm/s.

> print(dat)
                 substance               value.kind  obs.value
1        TWLPYPR [TWLPYPR]  Papp A→B at 4 h, 100 µM       7.06
2  EVSGPGKSPN [EVSGPGKSPN]  Papp A→B at 4 h, 100 µM       1.36
3        YVPFPLP [YVPFPLP]  Papp A→B at 4 h, 100 µM      0.999
4        TWLPLPR [TWLPLPR]  Papp A→B at 4 h, 100 µM       6.85

Now turn to the next substance.
Reported Papp A→B at 4 h, 100 µM, substance TWLPKPR [TWLPKPR] : ____
3.45
